Assign Selectivity for HDAC6, HD1/HD6 to each entry below.
# subject.of.test: human recombinant HDAC6 (Homo sapiens, UniProt Q9UBN7)
# Construct: purchased Calibiochem Co. (so in the source) 382180
# Sequence (Q9UBN7 whole entry): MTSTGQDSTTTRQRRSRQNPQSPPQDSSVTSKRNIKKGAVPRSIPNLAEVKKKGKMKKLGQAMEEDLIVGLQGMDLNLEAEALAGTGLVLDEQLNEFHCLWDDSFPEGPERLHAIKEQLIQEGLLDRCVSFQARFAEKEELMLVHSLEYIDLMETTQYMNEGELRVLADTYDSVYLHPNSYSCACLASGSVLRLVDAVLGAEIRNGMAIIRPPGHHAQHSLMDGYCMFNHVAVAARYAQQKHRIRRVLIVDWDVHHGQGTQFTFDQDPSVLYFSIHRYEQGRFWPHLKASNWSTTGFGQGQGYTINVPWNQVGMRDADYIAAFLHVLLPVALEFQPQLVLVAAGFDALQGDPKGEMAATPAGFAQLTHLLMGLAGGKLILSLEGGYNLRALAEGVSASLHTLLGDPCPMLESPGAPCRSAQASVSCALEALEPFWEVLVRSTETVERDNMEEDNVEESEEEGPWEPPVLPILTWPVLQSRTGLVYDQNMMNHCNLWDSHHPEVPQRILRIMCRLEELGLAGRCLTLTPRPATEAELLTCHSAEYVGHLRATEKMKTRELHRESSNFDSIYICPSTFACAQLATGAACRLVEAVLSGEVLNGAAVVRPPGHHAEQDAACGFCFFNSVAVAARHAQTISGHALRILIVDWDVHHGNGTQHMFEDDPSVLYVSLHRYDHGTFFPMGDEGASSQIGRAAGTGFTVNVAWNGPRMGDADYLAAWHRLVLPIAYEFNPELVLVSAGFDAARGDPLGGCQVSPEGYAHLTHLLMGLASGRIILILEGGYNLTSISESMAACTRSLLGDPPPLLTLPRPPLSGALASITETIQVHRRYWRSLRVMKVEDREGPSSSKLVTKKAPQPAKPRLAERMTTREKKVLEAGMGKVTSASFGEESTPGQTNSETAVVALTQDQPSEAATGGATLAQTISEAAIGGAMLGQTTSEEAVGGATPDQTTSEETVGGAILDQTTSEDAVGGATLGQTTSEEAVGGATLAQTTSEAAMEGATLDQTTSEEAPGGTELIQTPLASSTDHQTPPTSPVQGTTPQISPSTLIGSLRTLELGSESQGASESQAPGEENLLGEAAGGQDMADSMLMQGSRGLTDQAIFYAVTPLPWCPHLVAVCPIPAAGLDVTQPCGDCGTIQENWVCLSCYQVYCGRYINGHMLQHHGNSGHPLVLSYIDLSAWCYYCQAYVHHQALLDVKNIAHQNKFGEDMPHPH
# assay.procedure: HDAC enzyme activity test, HDAC6
# Type: biochemical
# protocol.conditions: Table 12; ratio HDAC1 IC50 / HDAC6 IC50
One number for each entry.

Answered examples (10):
[
  {
    "molecule": "COC[C@@H]1CCCN1CCN1CCc2c(c3cc(F)ccc3n2Cc2ccc(C(=O)NO)cc2)C1=O",
    "Selectivity for HDAC6, HD1/HD6": 588.2
  },
  {
    "molecule": "CN1CCN(CCN2CCc3c(c4cc(F)ccc4n3Cc3ccc(C(=O)NO)cc3)C2=O)CC1",
    "Selectivity for HDAC6, HD1/HD6": 715.1
  },
  {
    "molecule": "CC(C)(C)OC(=O)N1CCN(CC2CCc3c(c4cc(F)ccc4n3CCCCCC(=O)NO)C2=O)CC1 (centres unmarked)",
    "Selectivity for HDAC6, HD1/HD6": 113.2
  },
  {
    "molecule": "O=C(NO)c1ccc(Cn2c3c(c4cc(F)ccc42)C(=O)C(CN2CC[C@@H](F)C2)CC3)cc1 (some centres unmarked)",
    "Selectivity for HDAC6, HD1/HD6": 1420.6
  },
  {
    "molecule": "CN1CCN(CC2CCc3c(c4ccccc4n3Cc3ccc(C(=O)NO)cc3)C2=O)CC1 (centres unmarked)",
    "Selectivity for HDAC6, HD1/HD6": 338.2
  },
  {
    "molecule": "Cc1c2c(n(CCCCCC(=O)NO)c1C)CC(C)(C)CC2=O",
    "Selectivity for HDAC6, HD1/HD6": 9.8
  },
  {
    "molecule": "CC1(C)CC(=O)c2c(n(Cc3ccc(C(=O)NO)cc3)c3ccc(F)cc23)C1",
    "Selectivity for HDAC6, HD1/HD6": 168.3
  },
  {
    "molecule": "CN1CCN(CC2CCc3c(c4ccccc4n3CCCCCC(=O)NO)C2=O)CC1 (centres unmarked)",
    "Selectivity for HDAC6, HD1/HD6": 69
  },
  {
    "molecule": "CC1(C)CC(=O)c2c(n(CCCCCCC(=O)NO)c3c(Br)cccc23)C1",
    "Selectivity for HDAC6, HD1/HD6": 27.7
  },
  {
    "molecule": "CC1(C)CC(=O)c2c(n(CCCCCC(=O)NO)c3cc(Br)ccc23)C1",
    "Selectivity for HDAC6, HD1/HD6": 50.7
  }
]

As a next step, examine the molecule that follows.
Task item: // map O=C(NO)c1ccc(Cn2c3c(c4cc(F)ccc42)C(=O)NCC3)cc1 to recorded Selectivity for HDAC6, HD1/HD6 (system: human recombinant HDAC6 (Homo sapiens, UniProt Q9UBN7))
Reply: 1041.9
